tested_target: RORc (Homo sapiens, UniProt P51449)
Sequence (P51449 269-508 limits assumed): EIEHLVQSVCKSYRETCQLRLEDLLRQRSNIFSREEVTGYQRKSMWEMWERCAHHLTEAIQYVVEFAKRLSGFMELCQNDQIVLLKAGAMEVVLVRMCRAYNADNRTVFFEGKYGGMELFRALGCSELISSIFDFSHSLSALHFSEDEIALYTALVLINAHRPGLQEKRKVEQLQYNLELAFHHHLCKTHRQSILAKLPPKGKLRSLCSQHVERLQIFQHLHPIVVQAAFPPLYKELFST
pIC50: −log10 of the molar value.
measure_name: pIC50

molecule	tested_target	readout_number
C[C@H]1CC[C@H](c2ccccc2)S(=O)(=O)N1Cc1ccc(C2([C@@H](O)CO)CCOCC2)cc1F [Compound 98]	RORc (Homo sapiens, UniProt P51449)	7.20
C[C@H]1CC[C@H](c2ccccc2)S(=O)(=O)N1Cc1ccc([C@]2(C#N)C[C@H](O)C2)cc1F [Compound 178]	RORc (Homo sapiens, UniProt P51449)	7.36

[a] C[C@H]1CC[C@H](c2ccccc2)S(=O)(=O)N1Cc1ccc(C2(CC(N)=O)CCOCC2)cc1F [Compound 89]
[b] C[C@H]1CC[C@H](c2ccccc2)S(=O)(=O)N1Cc1ccc(OCC2(CS(C)(=O)=O)CCOCC2)cc1F [Example 4]
Challenge: # argmax over pIC50 for candidates a and b // output: label of the selected item
Response given: b

Where do these numbers come from? They come from patent US10131644B2.
